- Experimental target: human TOP1 (Homo sapiens, UniProt P11387)
- Construct: made in house; host or cells: Saccharomyces cerevisiae TOP1 null strain RS190, plasmid pHT143 (GAL promoter)
- Sequence (P11387 1-765): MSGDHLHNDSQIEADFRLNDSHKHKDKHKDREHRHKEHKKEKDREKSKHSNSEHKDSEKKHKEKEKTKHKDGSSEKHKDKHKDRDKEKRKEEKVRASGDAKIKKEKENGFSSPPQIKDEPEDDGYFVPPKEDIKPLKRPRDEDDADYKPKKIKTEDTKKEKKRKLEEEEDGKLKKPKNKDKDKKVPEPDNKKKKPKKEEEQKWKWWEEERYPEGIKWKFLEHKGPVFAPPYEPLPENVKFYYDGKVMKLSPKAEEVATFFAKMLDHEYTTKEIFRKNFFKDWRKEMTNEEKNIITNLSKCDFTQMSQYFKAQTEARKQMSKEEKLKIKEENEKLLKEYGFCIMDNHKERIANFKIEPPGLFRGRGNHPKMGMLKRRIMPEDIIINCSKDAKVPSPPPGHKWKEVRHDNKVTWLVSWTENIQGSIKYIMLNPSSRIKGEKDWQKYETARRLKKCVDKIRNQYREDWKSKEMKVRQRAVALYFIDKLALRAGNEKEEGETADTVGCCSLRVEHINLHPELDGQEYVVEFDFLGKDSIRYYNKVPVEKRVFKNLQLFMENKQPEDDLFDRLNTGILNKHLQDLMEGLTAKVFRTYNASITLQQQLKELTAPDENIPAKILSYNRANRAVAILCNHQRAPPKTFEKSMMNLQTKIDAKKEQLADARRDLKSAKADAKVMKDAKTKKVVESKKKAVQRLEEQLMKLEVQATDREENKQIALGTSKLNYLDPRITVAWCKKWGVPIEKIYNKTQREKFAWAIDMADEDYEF
- Test name: TOP1 supercoiled plasmid DNA relaxation assay
- Type: biochemical
- Stated conditions: 1 min reaction; compounds at 100 μM; semiquantitative

Molecule	TOP1 Inhibition 1 min
O=P(c1ccccc1)(c1ccccc1)c1ccc2nc(-c3cccc(F)c3)c3c(c2c1)-c1ccccc1C3	+ (weak inhibition)
O=C1c2ccccc2-c2c1c(-c1cccc3ccccc13)nc1ccc(P(=O)(c3ccccc3)c3ccccc3)cc21 [Compound 10g]	+ (weak inhibition)
O=P(c1ccccc1)(c1ccccc1)c1ccc2c(c1)C1c3ccccc3CC1C(c1ccc(F)cc1F)N2 (stereo not shown)	+ (weak inhibition)
O=P(c1ccccc1)(c1ccccc1)c1ccc2nc(-c3ccc(F)cc3F)c3c(c2c1)-c1ccccc1C3	++
O=P(c1ccccc1)(c1ccccc1)c1ccc2nc(-c3ccc(F)cc3)c3c(c2c1)-c1ccccc1C3	+ (weak inhibition)
COc1ccc(-c2nc3ccc(P(=O)(c4ccccc4)c4ccccc4)cc3c3c2Cc2ccccc2-3)cc1	++
O=P(c1ccccc1)(c1ccccc1)c1ccc2nc(-c3cccc4ccccc34)c3c(c2c1)-c1ccccc1C3	++
COc1cccc(-c2nc3ccc(P(=O)(c4ccccc4)c4ccccc4)cc3c3c2Cc2ccccc2-3)c1	++
O=P(c1ccccc1)(c1ccccc1)c1ccc2c(c1)C1c3ccccc3CC1C(c1ccc(C(F)(F)F)cc1)N2 (stereo not shown)	+++ (strong inhibition)
O=P(c1ccccc1)(c1ccccc1)c1ccc2nc(-c3ccccc3)c3c(c2c1)-c1ccccc1C3	+ (weak inhibition)
O=[N+]([O-])c1ccc(C2Nc3ccc(P(=O)(c4ccccc4)c4ccccc4)cc3C3c4ccccc4CC23)cc1 (stereo not shown)	+ (weak inhibition)
O=C1c2ccccc2-c2c1c(-c1ccc(C(F)(F)F)cc1)nc1ccc(P(=O)(c3ccccc3)c3ccccc3)cc21 [Compound 10b]	++
O=P(c1ccccc1)(c1ccccc1)c1ccc2nc(-c3ccc(Br)cc3)c3c(c2c1)-c1ccccc1C3	+ (weak inhibition)
O=P(c1ccccc1)(c1ccccc1)c1ccc2c(c1)C1c3ccccc3CC1C(c1ccc(F)cc1)N2 (stereo not shown)	++
O=P(c1ccccc1)(c1ccccc1)c1ccc2c(c1)C1c3ccccc3CC1C(c1cccc(F)c1)N2 (stereo not shown)	++
O=P(c1ccccc1)(c1ccccc1)c1ccc2nc(-c3ccc(C(F)(F)F)cc3)c3c(c2c1)-c1ccccc1C3	+++ (strong inhibition)
O=P(c1ccccc1)(c1ccccc1)c1ccc2c(c1)C1c3ccccc3CC1C(c1ccc(F)c(F)c1)N2 (stereo not shown)	++
CC[C@@]1(O)C(=O)OCc2c1cc1n(c2=O)Cc2cc3ccccc3nc2-1 [CPT, camptothecin, reference compound]	++
O=C1c2ccccc2-c2c1c(-c1ccccc1)nc1ccc(P(=O)(c3ccccc3)c3ccccc3)cc21 [Compound 10a]	+ (weak inhibition)

Source listed as paper PMC11678328.
